experiment: growth inhibition of RCMB18 medulloblastoma cells, cell-based, cisplatin and BGB IC40 combos (AID 1671462); settings: cisplatin combo, at 5 µM, stronger effect = higher value;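 also: cells exposed to compound for four days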
quantity: inhibition (%)
One number for each entry, in %.

Reference set (5 entries):
Short answer for `CN(C)NC(=O)CCC(=O)O` : inhibition was 1.98

Short answer for NC(Cc1ccc(N(CCCl)CCCl)cc1)C(=O)O (stereo unspecified) : inhibition was 81.5

Short answer for O=c1[nH]c(=O)n(C2OC(CO)C(O)C2O)cc1F (stereo unspecified) : inhibition was 75.4

Short answer for `O=C(O)CCCc1ccc(N(CCCl)CCCl)cc1` : inhibition was -8.27

Short answer for `Cn1c(COP(=O)(NCCBr)NCCBr)cnc1[N+](=O)[O-]` : inhibition was 1.65

Alright, here's another compound for you.
Short answer for `CC1(C)C(C(=O)Nc2ccc(S(=O)(=O)c3ccc(NC(=O)C4C(C)(C)C4(C)C)cc3)cc2)C1(C)C` : inhibition was -42.1
